# ASSAY TARGET: T1, UNK ZnF1-3 (human, UniProt Q9C0B0 31-174)
# T1 sequence: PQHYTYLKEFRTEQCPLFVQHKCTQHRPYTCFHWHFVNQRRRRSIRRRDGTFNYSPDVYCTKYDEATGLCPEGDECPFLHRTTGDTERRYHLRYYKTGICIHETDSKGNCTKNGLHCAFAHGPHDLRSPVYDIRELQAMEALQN
# MEASUREMENT NOTES: nsRBNS (natural sequence RNA bind-n-seq); RBNS binding buffer (assumed for nsRBNS): 25 mM Tris pH 7.5, 150 mM KCl, 3 mM MgCl2, 0.01% Triton X-100, 500 ug/ml BSA, 20 U/ml SUPERase-In, 4 C; UNK is unkempt and MSI1 is Musashi-1; names of the RNAs are library labels; protein concentration not given here; high values mean tight binding
Whole data set: some 24,000 sequences, median “enrichment r” near 0.99, cut for the highest 2% near 3.7. This is one part of a sample in which the highest values are shown more often than they occur.
MEASUREMENT NAME: binding signal (enrichment R)
Give just the number in enrichment R; leave the unit off.

Prompt line: I have this binder here, chr22:35691198:35691199:+_ENSG00000100281_ENST00000216106|hu_mus|FALSE|FALSE (ssRNA) RNA: GGGAGUUCUACAGUCCGACGAUCACAGUCCUGUGAGAAGCUUAGCUGUGACAGCAGUCGGGCUAUGGGAAGGAGUUCCCUAGGAUGCCAGCUGGCUACAUGGUCCCCAAAGGUUUACUGUGAUGCUGCCUCGUUCCAUCCAGGCAACAGAGGAUUGAGCAUCA , and I need its recorded binding signal.
Response line: 1.01

Prompt line: Recorded binding signal for chr3:94910677:94910678:-_ENSMUSG00000028126_ENSMUST00000107236|mus_mus|motif|central (ssRNA) RNA: GGGAGUUCUACAGUCCGACGAUCACUUGAGCCGGGCCCCGGGAGUCCCGCGUCUCGGAUAGAACAAACCUAAAGGAAAACCGGGGCACCUGAGGUGCCCCCAAAAGCGAAUGCCCCCCCUCCCUCACCUCCCCAGCCACUGCCCAACAGAGGAUUGAGCAUCA , please?
Response line: 2

Prompt line: binding signal lookup needed for chr14:89307221:89307222:+_ENSG00000165533_ENST00000346301|hu_mus|hu_hu_hu_mus_False|98_98 (ssRNA) RNA: GGGAGUUCUACAGUCCGACGAUCUCCUGUUUGGUUAGUUCCAGGGAGCUUCAAAGAUGUGCCAGGGCGUGGGACCUGAGCAAUAGCAUUUUCAUCCAGGAUCAUUUCAGCAAUUCCUUCCUGGUCCACAUCAAUUUCAUCUAUCAACAGAGGAUUGAGCAUCA , thanks.
Response line: 0.79
